Below, each entry is listed with its recorded pKd.
MEASURED ON: AT1 S115A mutant receptor (Rattus norvegicus, UniProt P25095, S115A)
PROCEDURE SUMMARY: competition binding, S115A mutant
CONDITION DESCRIPTION: S115A; COS1 membranes; read-out: Binding affinity (Kd)
pKd: −log10 of the molar value.
QUANTITY: pKd

MOLECULE | QUANTITY | NUMBER
CCCc1nc(C(C)(C)O)c(C(N)=O)n1Cc1ccc(-c2ccccc2-c2nnn[nH]2)cc1 [R239470] | pKd | 8.89
CCCc1nc(C(C)(C)O)c(C(=O)O)n1Cc1ccc(-c2ccccc2-c2nnn[nH]2)cc1 [Olmesartan, olmesartan, reference compound] | pKd | 8.51
CCCc1nc(C(C)(C)O)c(C(N)=O)n1Cc1ccc(-c2cc(Cc3ccc(O)cc3)ccc2-c2nnn[nH]2)cc1 [R794847] | pKd | 6.82

---

Below, each entry is listed with its recorded pKd.
MEASURED ON: AT1 C76A/L112C/C289A mutant receptor (Rattus norvegicus, UniProt P25095, C289A/C76A/L112C)
PROCEDURE SUMMARY: competition binding, C76A/L112C/C289A mutant
CONDITION DESCRIPTION: C76A/L112C/C289A; COS1 membranes; read-out: Binding affinity (Kd)
pKd: −log10 of the molar value.

MOLECULE | pKd
CCCc1nc(C(C)(C)O)c(C(=O)O)n1Cc1ccc(-c2ccccc2-c2nnn[nH]2)cc1 [Olmesartan, olmesartan, reference compound] | 8.21
CCCc1nc(C(C)(C)O)c(C(N)=O)n1Cc1ccc(-c2ccccc2-c2nnn[nH]2)cc1 [R239470] | 8.49
CCCc1nc(C(C)(C)O)c(C(N)=O)n1Cc1ccc(-c2cc(Cc3ccc(O)cc3)ccc2-c2nnn[nH]2)cc1 [R794847] | 7.21

---

MEASURED ON: AT1 C76A/S107C/C289A mutant receptor (Rattus norvegicus, UniProt P25095, C289A/C76A/S107C)
PROCEDURE SUMMARY: competition binding, C76A/S107C/C289A mutant
CONDITION DESCRIPTION: C76A/S107C/C289A; COS1 membranes; read-out: Binding affinity (Kd)

MOLECULE | Kd, nM
CCCc1nc(C(C)(C)O)c(C(N)=O)n1Cc1ccc(-c2cc(Cc3ccc(O)cc3)ccc2-c2nnn[nH]2)cc1 [R794847] | 102
CCCc1nc(C(C)(C)O)c(C(=O)O)n1Cc1ccc(-c2ccccc2-c2nnn[nH]2)cc1 [Olmesartan, olmesartan, reference compound] | 6.2
CCCc1nc(C(C)(C)O)c(C(N)=O)n1Cc1ccc(-c2ccccc2-c2nnn[nH]2)cc1 [R239470] | 1.8

---

Below, each entry is listed with its recorded Kd.
MEASURED ON: AT1 C76A/F110C/C289A mutant receptor (Rattus norvegicus, UniProt P25095, C289A/C76A/F110C)
Sequence (P25095 1-359 C76A/F110C/C289A): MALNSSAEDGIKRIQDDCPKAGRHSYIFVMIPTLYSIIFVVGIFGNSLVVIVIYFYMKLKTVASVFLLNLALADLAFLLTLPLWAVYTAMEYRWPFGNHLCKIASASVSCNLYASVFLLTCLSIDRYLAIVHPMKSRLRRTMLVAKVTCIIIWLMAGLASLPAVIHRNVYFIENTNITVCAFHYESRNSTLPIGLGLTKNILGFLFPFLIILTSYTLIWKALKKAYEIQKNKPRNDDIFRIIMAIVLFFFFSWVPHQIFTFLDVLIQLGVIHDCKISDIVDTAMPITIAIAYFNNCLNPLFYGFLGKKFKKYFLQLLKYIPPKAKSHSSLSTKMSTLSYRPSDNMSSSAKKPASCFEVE
PROCEDURE SUMMARY: competition binding, C76A/F110C/C289A mutant
CONDITION DESCRIPTION: C76A/F110C/C289A; COS1 membranes; read-out: Binding affinity (Kd)

MOLECULE | Kd
CCCc1nc(C(C)(C)O)c(C(=O)O)n1Cc1ccc(-c2ccccc2-c2nnn[nH]2)cc1 [Olmesartan, olmesartan, reference compound] | 6.6 nM
CCCc1nc(C(C)(C)O)c(C(N)=O)n1Cc1ccc(-c2ccccc2-c2nnn[nH]2)cc1 [R239470] | 2.4 nM
CCCc1nc(C(C)(C)O)c(C(N)=O)n1Cc1ccc(-c2cc(Cc3ccc(O)cc3)ccc2-c2nnn[nH]2)cc1 [R794847] | 126 nM

Where do these numbers come from? They come from paper PMC3375280.
